Cited source: ChEMBL document CHEMBL1154190

- testMethodNotes: Solubility in phosphate buffered saline
- Assay type: physicochemical
- testParameters: phosphate buffered saline; read-out: solubility
measuredAttribute: solubility (µg/mL)
Give a bare numeral; the unit µg/mL is implied.

- lineNotation: "CC(=O)[C@H]1CC[C@H]2[C@@H]3CCC4=C[C@@H](OC(=O)[C@H](C)N)CC[C@]4(C)[C@H]3CC[C@]12C.Cl"
  measurementUnits: "µg/mL"
  recordedResult: 3340
- lineNotation: "CC(=O)[C@H]1CC[C@H]2[C@@H]3CCC4=C[C@@H](OC(=O)[C@@H](N)C(C)C)CC[C@]4(C)[C@H]3CC[C@]12C.Cl"
  measurementUnits: "µg/mL"
  recordedResult: 3850
- lineNotation: "CC(=O)[C@H]1CC[C@H]2[C@@H]3CCC4=C[C@@H](OC(=O)[C@@H]5CCCN5)CC[C@]4(C)[C@H]3CC[C@]12C.Cl"
  measurementUnits: "µg/mL"
  recordedResult: 1530
- lineNotation: "CC(=O)[C@H]1CC[C@H]2[C@@H]3CCC4=C/C(=N\\OC(=O)[C@@H](N)C(C)C)CC[C@]4(C)[C@H]3CC[C@]12C.Cl"
  measurementUnits: "µg/mL"
  recordedResult: 15200
- lineNotation: "CC(=O)[C@H]1CC[C@H]2[C@@H]3CCC4=C[C@@H](OC(=O)[C@@H](N)Cc5ccccc5)CC[C@]4(C)[C@H]3CC[C@]12C.Cl"
  measurementUnits: "µg/mL"
  recordedResult: 610

[in] # get_value(readout='solubility', item= CC(=O)[C@H]1CC[C@H]2[C@@H]3CC[C@@H]4C[C@H](OC(=O)[C@@H](N)C(C)C)CC[C@]4(C)[C@H]3CC[C@]12C.Cl )
[out] 300
